For each record, write down the corresponding IC50.
System tested: Platelet-derived growth factor receptor beta (Homo sapiens, UniProt P09619)
Sequence (P09619 whole entry): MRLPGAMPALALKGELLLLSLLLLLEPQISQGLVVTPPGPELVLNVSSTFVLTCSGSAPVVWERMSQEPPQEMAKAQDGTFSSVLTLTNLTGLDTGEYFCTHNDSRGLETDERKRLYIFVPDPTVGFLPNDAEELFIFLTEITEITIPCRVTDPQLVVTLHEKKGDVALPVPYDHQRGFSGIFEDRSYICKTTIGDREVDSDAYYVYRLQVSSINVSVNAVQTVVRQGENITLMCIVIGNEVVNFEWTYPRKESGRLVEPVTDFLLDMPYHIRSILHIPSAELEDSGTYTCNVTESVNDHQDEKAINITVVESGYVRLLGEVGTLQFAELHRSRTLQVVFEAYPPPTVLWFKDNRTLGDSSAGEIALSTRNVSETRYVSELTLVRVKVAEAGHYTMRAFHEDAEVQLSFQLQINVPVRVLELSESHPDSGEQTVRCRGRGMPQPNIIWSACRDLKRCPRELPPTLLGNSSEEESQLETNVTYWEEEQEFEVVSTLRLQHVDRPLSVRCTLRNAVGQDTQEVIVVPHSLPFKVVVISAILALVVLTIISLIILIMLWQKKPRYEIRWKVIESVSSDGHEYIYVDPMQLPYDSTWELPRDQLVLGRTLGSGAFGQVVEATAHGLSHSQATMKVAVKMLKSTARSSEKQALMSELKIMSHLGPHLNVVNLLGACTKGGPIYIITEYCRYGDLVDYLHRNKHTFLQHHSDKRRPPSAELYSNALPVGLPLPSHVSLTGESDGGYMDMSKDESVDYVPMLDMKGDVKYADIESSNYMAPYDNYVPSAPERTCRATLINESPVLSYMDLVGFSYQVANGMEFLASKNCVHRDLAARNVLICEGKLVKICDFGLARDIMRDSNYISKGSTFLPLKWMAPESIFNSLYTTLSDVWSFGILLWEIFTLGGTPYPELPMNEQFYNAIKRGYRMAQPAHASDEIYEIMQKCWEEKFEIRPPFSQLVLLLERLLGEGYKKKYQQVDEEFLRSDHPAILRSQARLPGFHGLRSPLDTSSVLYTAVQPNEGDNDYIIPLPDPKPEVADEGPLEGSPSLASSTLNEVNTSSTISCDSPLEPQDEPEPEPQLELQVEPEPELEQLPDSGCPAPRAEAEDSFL
Method description: Kinase Inhibition Assay

Entry CCOc1cc(OCC)cc(-c2cc3cnc(N)nc3nc2NC(=O)NC(C)(C)C)c1 needs its IC50 filled in; supply it.
> 50 µM

Indicate the recorded IC50 value for this molecule: COc1ccc(-c2cc3cnc(N)nc3nc2NC(=O)NC(C)(C)C)cc1OC
> 50 µM

Could you please provide reported IC50 for CN(C)c1cc(-c2cc3cnc(N)nc3nc2NC(=O)NC(C)(C)C)cc(N(C)C)c1 ? Thanks!
> 50 µM

---

System tested: Platelet-derived growth factor receptor beta (Homo sapiens)
Method description: Kinase Inhibition Assay
Assay conditions: pH 7.4; 25 °C
Procedure: The kinase activity is the enzyme activity that catalyzes the transfer of the terminal phosphate from [gamma-32P] ATP to the poly (E: Y) substrate. Nonspecific activity was defined as radioactivity retained on the filters following incubation of samples without enzyme. Specific activity was determined as total activity minus nonspecific activity.
pIC50: −log10 of the molar value.
Property measured: pIC50

Dear colleague, please send me the reported pIC50 for Cc1cc(C)c(C)c(-c2cc3cnc(N)nc3nc2NC(=O)NC(C)(C)C)c1C when you can.
< 4.30

Identify measured pIC50 associated with Cc1cc(C)c(-c2cc3cnc(N)nc3nc2NC(=O)NC(C)(C)C)c(C)c1
5.83

Hello, please tell me recorded pIC50 for this one: CC(C)(C)NC(=O)Nc1nc2nc(N)ncc2cc1-c1cc(C(F)(F)F)cc(C(F)(F)F)c1
< 4.30

Give me measured pIC50, please, for this molecule: CCc1cc(CC)cc(-c2cc3cnc(N)nc3nc2NC(=O)NC(C)(C)C)c1
< 4.30

Identify pIC50 associated with the molecule Cc1c(C)c(C)c(-c2cc3cnc(N)nc3nc2NC(=O)NC(C)(C)C)c(C)c1C
< 4.30
